METHOD SUMMARY: gradient 5% acetonitrile 3 min, to 50% in 2 min, to 85% in 15 min, held 3 min, 100 µL/min
APPLIED CONDITIONS: column: Zorbax Extend-C18 2.1 x 50 mm; eluents: water / acetonitrile, 0.1% formic acid
PROPERTY MEASURED: RP-LC retention time (s)

Known results for molecules:
{"columns": ["MOLECULE", "READING UNIT", "RP-LC retention time"],
 "data": [
  ["O=C(CC1CCCCC1)NC1CCN(C(=O)c2cc(-c3cccc(Cl)c3)n[nH]2)CC1", "s", 797],
  ["O=C(NCCCO)C1CCCN(c2ccc(Sc3ccc(Br)cc3)nn2)C1 (centres undefined)", "s", 704],
  ["Cc1[nH]nc(-c2ccc(S(=O)(=O)NC3CC3)o2)c1C", "s", 723]
]}

[1] Cc1cc(C)n(-c2ccnc(N3CCC(C(=O)NCc4ccc(F)cc4)CC3)n2)n1
[2] CC(C)(c1ccccc1)c1cc(CN2CCOCC2)c(O)c(CN2CCOCC2)c1
Inquiry: // pick min by RP-LC retention time: 1 , 2 Refer to your chosen item by its label in the answer.
Reply text: 2
(2: 575 s, 1: 833 s)

---

METHOD SUMMARY: gradient 5% acetonitrile 3 min, to 50% in 2 min, to 85% in 15 min, held 3 min, 100 µL/min
APPLIED CONDITIONS: column: Zorbax Extend-C18 2.1 x 50 mm; eluents: water / acetonitrile, 0.1% formic acid
PROPERTY MEASURED: RP-LC retention time (s)

Known results for compounds:
{"columns": ["COMPOUND", "PROPERTY MEASURED", "RECORDED MEASUREMENT"],
 "data": [
  ["Cc1nc(-c2cn(C)c3ncccc23)sc1C(=O)N1CCN(c2ccccc2)CC1", "RP-LC retention time", 932],
  ["O=S(=O)(c1ccccc1)N1[C@H]2CC[C@@H]1c1cncnc1C2", "RP-LC retention time", 678],
  ["O=c1n(Cc2ccc(F)cc2)nc2c(S(=O)(=O)N3CCCCCC3)cccn12", "RP-LC retention time", 956],
  ["CNC(=O)CCc1nc2ccccc2n(CC(=O)NCc2ccccc2Br)c1=O", "RP-LC retention time", 700],
  ["CS(=O)(=O)N1CCCC(C(=O)Nc2nc3cc4c(cc3s2)OCCO4)C1 (stereo not given)", "RP-LC retention time", 707]
]}

[a] COCCC1(NS(C)(=O)=O)CCN(C(=O)NC(C)C)CC1
[b] Cc1oc(-c2cccs2)nc1COc1cc(C)c2c(C)nn(C)c2n1
Inquiry: // pick min by RP-LC retention time: a , b Refer to your chosen item by its label in the answer.
Reply text: a

---

METHOD SUMMARY: gradient 5% acetonitrile 3 min, to 50% in 2 min, to 85% in 15 min, held 3 min, 100 µL/min
APPLIED CONDITIONS: column: Zorbax Extend-C18 2.1 x 50 mm; eluents: water / acetonitrile, 0.1% formic acid
PROPERTY MEASURED: RP-LC retention time (s)

{"columns": ["COMPOUND", "RECORDED MEASUREMENT"],
 "data": [
  ["CC(C)CC(=O)Nc1ccc2c(c1)nc(CN1CCOCC1)n2C(C)C", 630],
  ["Cc1cccn2cc(-c3cccc(S(=O)(=O)N4CC(C)CC(C)C4)c3)nc12 (stereo not given)", 828],
  ["COc1ccc(-c2cn3ccn(-c4ccc(C)cc4C)c(=O)c3n2)cc1OC", 797],
  ["O=C(NCc1ccc(N2CCCC2)cc1)c1sc2ncccc2c1-n1cccc1", 1130],
  ["Cc1nc2c(C)cccn2c(=O)c1NC(=O)COc1ccc(Cl)cc1Cl", 838]
]}
